Tested on: DMS-114
Assay: NCI tumour cell line growth inhibition, 48 h
Active and inactive are the calls of the source. Rule as the data show it: active = GI50 up to about 1.1 µM and inactive = higher.
Return exactly one item of active, inactive

compound=O=C(NC12CC3CC(CC(C3)C1)C2)C(=O)c1c[nH]c2ccc(Br)cc12 label_class=inactive
compound="COC(=O)C(C(=O)C(=O)Nc1ccccc1OC)c1csc(-n2nc(-c3ccccc3)cc2-c2ccccc2)n1 (stereo not drawn)" label_class=inactive
compound=CN(C)[C@@H]1C(O)=C(C(=O)NCNc2nc3[nH]nnc3c(=O)[nH]2)C(=O)[C@@]2(O)C(O)=C3C(=O)c4c(O)cccc4[C@@](C)(O)[C@H]3C[C@@H]12 label_class=inactive
compound=Cc1cc(N(CCC#N)CCC#N)ccc1/C=C1\N=C(c2cc([N+](=O)[O-])ccc2Cl)N(c2cccc(Cl)c2)C1=O label_class=inactive
compound="O=C1C=CC2(O)OCC3C=C4O[C@@H]5OC6(CCCCC6)O[C@@H]5C4[C@@H]2[C@@H]13 (stereo partly drawn)" label_class=inactive

Check the results log: what was the call for N/C(=N\O)N/N=C\c1ccc(O)c(O)c1O ? inactive

Please state the recorded outcome for this compound: O=[N+]([O-])c1ccc(Cl)cc1C1SCc2nc3ccccc3n21 (stereo not drawn) inactive

Could you check what this test reported for O=S(=O)(C1=CC(S(=O)(=O)c2ccccc2)CN(Cc2ccccc2)C1c1cccc2ccccc12)c1ccccc1 (stereo not drawn) ? inactive

Assay outcome for COc1cc2c(c(OC)c1)C1(CC(CC#N)C2)SCCS1 (stereo not drawn) : what was it? inactive

Kindly provide the recorded test outcome for the following compound: COC(=O)C(C)NP(=O)(N1CC1)N1CC1 (stereo not drawn) inactive

Give the logged outcome of this assay for the following compound: Fc1cccc2cc3ccc4cccc5ccc(c12)c3c45 inactive

Lab log entry: Cc1ccc(C)c(NC(=O)CCC(=O)CC(=O)C(C)(C)C)c1 — outcome as called in the assay? inactive

Which result was noted for this compound in the test: O=C(O)c1oc2cccc3c2c1CCC3 inactive

###

System: RXF 393
Assay: NCI tumour cell line growth inhibition, 48 h
The source made the active and inactive calls. Cut-off read from the data, not from the text of the source: active = GI50 up to about 1.1 µM and inactive = higher.
Each item that follows carries a reported GI50.

Solved cases below.
compound=N#C[C@H](C(=O)c1ccccc1F)c1nc2ccccc2s1 target_of_assay="RXF 393" result="27.7 µM (inactive)"
compound=O=[N+]([O-])c1ccc2[nH]ncc2c1Cl target_of_assay="RXF 393" result="42.8 µM (inactive)"
compound=OC1=CN=C(c2ccccc2)Oc2ccccc21 target_of_assay="RXF 393" result="> 100 µM (inactive)"
compound="C=CCCC(On1c(-c2ccc(Cl)cc2)csc1=S)c1ccccc1 (stereo unspecified)" target_of_assay="RXF 393" result="29.7 µM (inactive)"
compound="C=C1CCCCCCCCCCC1[S+]([O-])c1ccccc1 (stereo unspecified)" target_of_assay="RXF 393" result="26.5 µM (inactive)"

Query compound follows.
Using the record for C=CC(C)(C)NC(C(=O)N1CCC[C@H]1c1nc(-c2nc(C(=O)OCC=C(C)C)c(C)o2)c(C)o1)C(C)C (stereo partly specified) , report its GI50. > 55.2 µM (inactive)

###

Test system: SN12C
Assay: NCI tumour cell line growth inhibition, 48 h
Active and inactive are the calls of the source. Cut-off read from the data, not from the text of the source: active = GI50 up to about 1.1 µM and inactive = higher.
Observable: GI50

compound="CCOC(=O)C1=C(C)N(Cc2ccc(Cl)cc2Cl)C2(O)C(OC)CC(=O)C3C(=O)N(c4ccccc4)C(=O)C132 (stereo not drawn)" target_of_assay=SN12C observable=GI50 result="2.26 µM (inactive)"

Recorded GI50 of CCC(=O)N1C(=O)C(CC)(CC)C(=O)N1C(=O)CC , please. > 100 µM (inactive)

Param item = Cc1ccc(-c2n[nH]c(=O)n2/N=C\c2ccc([N+](=O)[O-])cc2)cc1 ; retrieve measured GI50. > 100 µM (inactive)

Give its GI50 value. Item: CN(C)[C@@H]1C(O)=C(C(=O)NCNc2nc3[nH]nnc3c(=O)[nH]2)C(=O)[C@@]2(O)C(O)=C3C(=O)c4c(O)cccc4[C@@](C)(O)[C@H]3C[C@@H]12 0.743 µM (active)

Could you share which GI50 value was measured for O=C(O)c1[nH]c(C(=O)O)c(CC(F)(F)C(F)(F)C(F)(F)F)c1CC(F)(F)C(F)(F)C(F)(F)F ? > 100 µM (inactive)

Given the compound COS(=O)c1cc(Cl)cc(Cl)c1O (stereo not drawn) , what is its reported GI50? > 100 µM (inactive)

So what does the record say about GI50 for CC(=O)OCC1OC(n2c(=S)n(-c3ccc([N+](=O)[O-])cc3)c(=O)c3ccccc32)C(OC(C)=O)C(OC(C)=O)C1OC(C)=O (stereo not drawn) ? 19.1 µM (inactive)

Which GI50 value is on record for O=c1cc(-c2ccccc2)oc2cc(OCCSCCCCCCCCCCSCCOc3ccc4c(=O)cc(-c5ccccc5)oc4c3)ccc12 ? > 100 µM (inactive)

Item under review: OC1=CN=C(c2ccccc2)Oc2ccccc21 . Reported GI50? > 100 µM (inactive)

# query: GI50 of entry CC1(C)CC[C@]2(C(=O)O)CC[C@]3(C)C(=CC[C@@H]4[C@@]5(C)CC[C@H](OC6OC(CO)C(O)C(O)C6O)C(C)(C)[C@@H]5CC[C@]43C)[C@@H]2C1 (stereo partly drawn) 1.7 µM (inactive)

Reported GI50 for C1=Cc2nc1c(-c1ccccc1)c1nc(c(-c3ccccc3)c3ccc([nH]3)c(-c3ccccc3)c3ccc([nH]3)c2-c2ccccc2)C=C1 : what is it? > 100 µM (inactive)
